GI50 values, listed per item
- System: DU-145
- experimentSummary: NCI tumour cell line growth inhibition, 48 h
Active and inactive are the calls of the source. Cut-off read from the data, not from the text of the source: active = GI50 up to about 1.1 µM and inactive = higher.

molecule	result
COc1cc(C2C3=C(COC3=O)OC(C)(C)Oc3cc4c(cc32)OCO4)cc(OC)c1O (stereo not given)	1.39 µM (inactive)

Qu. // fetch GI50; item: CN(C)/C=C/C=C(/C=N/S(=O)(=O)C(F)(F)F)C1C=CN(S(=O)(=O)C(F)(F)F)C=C1 ; system: DU-145
Ans. 37.2 µM (inactive)

Qu. Quote DU-145 GI50 for entry Cn1c2ccc(Cl)cc2c2ccc3c(c21)C(=O)C=CC3=O .
Ans. > 10 µM (inactive)

Qu. For DU-145, give the measured GI50 of the entry CC(=O)OC12OC(C)(C3C(=O)N(c4ccccc4)C(=O)C31)N(c1ccccc1)C2=O (stereo not given)
Ans. > 100 µM (inactive)

Qu. Return reported GI50 for target or system DU-145, item Oc1cccc(-c2nc3cc(F)ccc3s2)c1 .
Ans. 18.7 µM (inactive)

====

- Test system: ACHN
- experimentSummary: NCI tumour cell line growth inhibition, 48 h
The source made the active and inactive calls. Rule as the data show it: active = GI50 up to about 1.1 µM and inactive = higher.
Answer with one of the outcomes given here: active, inactive

The following compounds have reported results that may help.
compound	cat
CC(C)=CCC12Cc3ccc(O)cc3C(C(C)CN1)C2C (stereo unspecified)	inactive
OC(c1ccco1)C(F)(F)c1nc2ccccc2o1 (stereo unspecified)	inactive
CC1CC(=O)N(N(C)C)C2(C#N)C(=O)N=C(N)C12C#N (stereo unspecified)	inactive

Qu. Which result was noted for this compound in the test: Cc1cccc2cc3c(ccc4ccccc43)c[n+]12
Ans. inactive

Qu. Dear all, I need the recorded test outcome for COc1ccc2oc(=O)c(-c3nc4ccccc4o3)cc2c1 , thank you.
Ans. inactive

Qu. // return assay outcome for CN(C)CC1CCC/C(=C\c2ccc(N(C)C)cc2)C1=O (stereo unspecified)
Ans. inactive

Qu. Assay outcome for Cn1c(-c2cccs2)cc(-c2ccsc2)c1-c1cccs1 : what was it?
Ans. inactive

Qu. Which result was noted for this compound in the test: CCSC1(SCC)CC(Cc2ccc(OC)cc2)N(/C=N/C(C)(C)C)C1 (stereo unspecified)
Ans. inactive

Qu. Entry O=C(NCCOCCO)c1ccc(O)cc1 : call = ?
Ans. inactive

Qu. Assay result, entry CC(=O)NC1C(OCc2ccccc2)OC(CO)C(O)C1OC(C)C(=O)NC(C)C(=O)NC(CCC(=O)NCCCNc1c2ccccc2nc2cccc([N+](=O)[O-])c12)C(N)=O (stereo unspecified) — outcome?
Ans. active

Qu. Can you look up the reported call for N#CC(Cc1ccccc1)N(CCC1=CCCCC1)C(c1ccccc1)c1ccccc1 (stereo unspecified) for me?
Ans. inactive

====

- Tested on: LOX IMVI
- experimentSummary: NCI tumour cell line growth inhibition, 48 h
Active and inactive are the calls of the source. No stated cut-off is given here; in the data, active = GI50 up to about 1.1 µM and inactive = higher.
Respond with a class label; see Y (active), N (inactive)

compound	subjectOfTest	cat
O=C(/N=N/c1ccc(Cl)cc1Cl)NNc1ccc(Cl)cc1Cl	LOX IMVI	N
N#CCCN(CCC#N)c1ccc(/C=C2\N=C(c3ccccc3)N(NC(N)=S)C2=O)cc1	LOX IMVI	N
CC1(C)CCCCCCCCCC2CC2CCC(C)(C)C1=O (configuration not stated)	LOX IMVI	N
COc1cc(O)c2c(c1)OCC(Cc1ccc(O)cc1)C2=O (configuration not stated)	LOX IMVI	N
OC(c1ccco1)C(F)(F)c1nc2ccccc2o1 (configuration not stated)	LOX IMVI	N

Qu. What did this assay record as the result for Cc1cccc(N2C(=O)C(Cl)=C(Cl)C2=O)c1 ?
Ans. N

Qu. For CC(Cl)CN1c2ccccc2Sc2ccc(Cl)cc21 (configuration not stated) , what call appears in the results of this test?
Ans. N
